Biological target: Delta-type opioid receptor (Mus musculus, UniProt P32300)
Sequence (P32300 whole entry): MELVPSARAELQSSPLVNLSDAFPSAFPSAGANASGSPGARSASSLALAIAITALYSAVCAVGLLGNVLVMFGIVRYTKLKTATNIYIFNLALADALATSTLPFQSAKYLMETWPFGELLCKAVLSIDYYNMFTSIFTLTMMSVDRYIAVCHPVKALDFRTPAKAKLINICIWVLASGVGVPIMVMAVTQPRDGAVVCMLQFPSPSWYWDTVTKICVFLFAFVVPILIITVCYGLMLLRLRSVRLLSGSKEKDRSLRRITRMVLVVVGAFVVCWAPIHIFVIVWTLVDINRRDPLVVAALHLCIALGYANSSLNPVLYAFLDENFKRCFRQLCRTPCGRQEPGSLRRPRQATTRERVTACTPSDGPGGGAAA
Test: Inhibitory activity towards electrically induced contractions in mouse vas deferens expressing delta opioid receptor
Measured attribute: pIC50
When answering, recall that pIC50 equals minus log10 of the concentration in mol/L, and write that number alone.

Recorded results for 2 compounds are shown here.
>  <Structure smiles>
NC(=O)[C@@H]1CC(=O)NCCC[C@@H](NC(=O)[C@@H](N)Cc2ccc(O)cc2)C(=O)N[C@@H](CCc2ccccc2)C(=O)N1

>  <Measured attribute>
pIC50

>  <Experimental result>
5.86

$$$$
>  <Structure smiles>
NC(=O)[C@@H]1CC(=O)NCCC[C@@H](NC(=O)[C@@H](N)Cc2ccc(O)cc2)C(=O)N[C@@H](Cc2ccccc2)C(=O)N1

>  <Measured attribute>
pIC50

>  <Experimental result>
5.41

$$$$

Moving on to the next compound.
Problem: GET /values?readout=pIC50&item= NC(=O)[C@@H]1CC(=O)NCCC[C@@H](NC(=O)[C@@H](N)Cc2ccc(O)cc2)C(=O)N[C@@H](C2CCCCC2)C(=O)N1
Solution: 5.78
